Entries and their folding stability dG unfold
test: folding stability dG unfold from trypsin proteolysis; higher = more stable
measured attribute: folding stability dG unfold

{"residue codes": "SAGGPKLFVEEDPVEDGVVVVVETNADPVALLKALEKLFGRPVKDVRFERLPDGRLIAVARIPKDALSAGGS [r16_605_TrMRF]", "measured attribute": "folding stability dG unfold", "endpoint result": "2.05 kcal/mol"}
{"residue codes": "SAGGSAGGSAGMEPIRVTVTTQDTATGTTTTTTVTVPTDVPVEAVLAALDPALVTAVTVESAGGSAGGSAGG [r11_386_JUSTAS]", "measured attribute": "folding stability dG unfold", "endpoint result": "1.68 kcal/mol"}
{"residue codes": "SAGGAMPVELVETLEEIPGKGIVLRKFRDPLSDKWFLATVPVETLPNGEKKYLIELNIDGSGMTLELGSAGG [r13_993_JUSTAS]", "measured attribute": "folding stability dG unfold", "endpoint result": "0.0151 kcal/mol"}
{"residue codes": "SAGGSAMTVTKVGSETKTDPAKGIVTTTEITKLPTGGLTKTVTTTTIEGGKVKSSTTTTTAIPVGTSAGGSA [r15_283_JUSTAS]", "measured attribute": "folding stability dG unfold", "endpoint result": "-0.156 kcal/mol"}
{"residue codes": "SKIKKIKRVEIFKKKEKGYVVKITVEIDGKEYEFTVPAGMSLEEALKELLKNKDVKIKSVEIKPVSKEELSA [r9_607_TrROS_Hall]", "measured attribute": "folding stability dG unfold", "endpoint result": "0.0722 kcal/mol"}
{"residue codes": "SMKEKALEKAKEKAEEIKKKYSNVKVKVEVKVEITPKGEIKITYKVVIEKPEKEKPYWVKYPNGPWKKIGSA [r9_82_JUSTAS]", "measured attribute": "folding stability dG unfold", "endpoint result": "1.2 kcal/mol"}
{"residue codes": "SAGGSAGGSAGGMKTITLTTTSPEEAEAAKEKLLKEGPNNLVITYKPPPEPYPENGPRVVSAGGSAGGSAGG [r7_261_JUSTAS]", "measured attribute": "folding stability dG unfold", "endpoint result": "-0.294 kcal/mol"}
